Assay: Ratio of drug concentration in brain to plasma in Sprague-Dawley rat at 1 mg/kg, po after 60 mins by LC/MS/MS analysis
Type: ADME, organism-based
Conditions: read-out: BPR
MEASURED ENDPOINT: Kp at 1 h

chemical_structure=CCC(=O)NCC[C@@H]1CCc2ccc3c(c21)CCO3 readout_number=1.1

###

Assay: Drug concentration in Sprague-Dawley rat brain at 0.1 mg/kg, po after 60 mins by LC/MS/MS analysis
Format: ADME, organism-based
Settings: read-out: Ct
MEASURED ENDPOINT: concentration at 1 h (ng/g)

chemical_structure=CC(=O)NCC[C@@H]1CCc2ccc3nc(C)oc3c21 readout_number=1.4
